The origin of these recorded values is paper PMC10311653.

# tgt: wildtype (WT) human interleukin-1β (Homo sapiens, UniProt P01584)
measure: binding result

Q15CK-B1 (antibody, V domains shown) VH: EVQLQQSGPQLVRPGASVKISCKASGYSFTSYWMHWVKQRPGQGLEWIGMIDPSDSETRLNQKFKDKATLTVDKSSSTAYMQLSSPTSEDSAVYYCARWDSWGQGTLVTVSA VL: DIVMTQSPSSLTVTAGEKVTMSCKSSQSLSKSGNQKNYLTWYQQKPGQPPKLLIYWASTRESGVPDRFTGSGSGTDFTLTISSVQAEDLAVYYCQNDYSYPFTFGSGTKLEIK
binds
Q15CK-D4 (antibody, V domains shown) VH: EVQLVESGGGLVQPGGSRKLSCAASGFTFSTFGMHWVRQAPEKGLEWVAYISSGSYTIYYADTVKGRFTISRDNPKNTLFLQMTSLRSEDTAMYYCARDDYDVNYYAMDYWGQGTSVTVSS VL: DIVLSQSPAIMSASPGEKVTMTCSASSSVSYMHWYQQKSSTSPKLWIYDTSKLASGVPGRFSGSGSGNSYSLTISSMEAEDVATYYCFQGSGYPYTFGGGTKLEIK
binds
Q15CK-A8 (antibody, V domains shown) VH: EVKLQESGAELVKPGASVKLSCTASGFNIEDTYIHWVKQRPEQGLEWIGRIDPANGNTKYDPKFQGKATITEDTSSNTAYLQLSSLTSEDTAVYYCAIHYYGSFAYWGQGTLVTVSA VL: DIQITQSRKFMSTSVGDRVSVTCKASQNVGTNVAWYQQKPGQSPKALIYSASYRYSGVPDRFTGSGSGTDFTLTISNVQSEDLAEYFCQQYNSYPYTFGGGTKLELK
binds
Q15CK-D6 (antibody, V domains shown) VH: EVQLQQSGPQLVRPGASVKISCKASGYSFTNYWMHWVKQRPGQGLEWIGMIDPSDSETRLDQKFKDKATLTVDKSSSTAYMQLSSPTSEDSAVYYCARWDSWGQGTLVTVSA VL: DILLTQSPSSLTVTAGEKVTMSCKSSQSLLNSGNQKNYLTWYQQKPGQPPKLLIYWASTRESGVPDRFTGSGSGTDFTLTISSVQAEDLAVYYCQNDYSYPFTFGSGTKLEIK
binds
Q15CK-B10 (antibody, V domains shown) VH: EVQLQQSGTELVKPGASVKLSCTASGFNIKDTYMHWVKQRPEQGLEWIGRIDPANDNTKYDPKFQGKATITTDTSSNTAYLQLSSLTSEDTAVYYCAIHYYGSFPYWGQGTLVTVSA VL: DIVMTQSQKFMSTSVGDRVSITCKASQNVGTAVAWYQQKPGQSPKLLIYSASNRYTGVPDRFTGSGSGTDFTLTISNMQSEDLADYFCQQYSSYPYTFGGGTKLELK
binds

Moving on to the next binder.
binding result reading for Q15CK-H5 (antibody, V domains shown) VH: EVQLQQSGAELVKPGASVRLSCTASGFNIKDTYMHWVRQRPEQGLEWIGRIDPANGNTKYDPKSQGKATLTADTSSNTAYLHLSSLTSEDTAVYYCAIHYYGSFAYWGQGTLVTVSA VL: DIVMTQSQKFMSTSVGDRVSVTCKASQNVGTNVAWYQQKPGQSPKALIYSASYRYSGVPDRFTGSGSGTDFTLTISNVQSEDLAEYFCQQYNSYPLTFGAGTKLELK : binds
